# METHOD SUMMARY: Pharmacokinetic studies in the mouse (i.v. clearance, plasma levels)
# Type: in vivo
# RECORDED CONDITIONS: CD-1, plasma, iv, 25 mg/kg; mouse; Table 17
MEASUREMENT LABEL: clearance (mL/min/kg)

Field: example entries. Status: answers known.
• COC(=O)N[C@H]1CCC(=O)N2CCC[C@@H](C(=O)N[C@@H](CC(=O)O)C(=O)CSc3ncccn3)N2C1=O [Compound 511c] = 78
• O=C(O)C[C@H](NC(=O)[C@@H]1CCCN2C(=O)CC[C@H](NC(=O)c3ccccc3)C(=O)N12)C(=O)CSc1nccs1 [Compound 510a] = 267

a. O=C[C@H](CC(=O)O)NC(=O)[C@@H]1CCCN2CCC[C@@H](NC(=O)c3ccccc3)C(=O)N12 [Compound 246b]
b. O=C1C[C@H](NC(=O)[C@@H]2CCCN3C(=O)CC[C@H](NC(=O)c4cccc5ccccc45)C(=O)N23)C(OCc2ccccc2)O1 (stereo partly shown) [Compound 213v]
## Task Given the two records a and b , choose the one whose clearance value is lower. Your choice should be expressed through its label.
## Result b

Data credit: patent US20120165319A1
